molecular target: canine CD3 on canine T cells (canine PBMC) (canine, UniProt P27597 22-202); assay: cell-based or functional assay
Sequence (P27597 22-202 limits assumed, chain 1 of 3): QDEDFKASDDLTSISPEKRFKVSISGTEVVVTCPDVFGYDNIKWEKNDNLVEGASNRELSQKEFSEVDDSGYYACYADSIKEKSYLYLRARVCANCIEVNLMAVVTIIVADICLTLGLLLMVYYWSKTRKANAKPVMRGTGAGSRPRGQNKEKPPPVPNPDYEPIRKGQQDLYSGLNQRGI
Sequence (chain, as listed by the source limits assumed, chain 2 of 3): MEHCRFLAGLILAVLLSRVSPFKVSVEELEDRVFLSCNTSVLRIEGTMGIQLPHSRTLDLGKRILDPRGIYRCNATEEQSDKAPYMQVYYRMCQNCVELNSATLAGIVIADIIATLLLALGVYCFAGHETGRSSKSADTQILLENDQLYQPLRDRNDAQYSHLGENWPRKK
Sequence (chain, as listed by the source limits assumed, chain 3 of 3): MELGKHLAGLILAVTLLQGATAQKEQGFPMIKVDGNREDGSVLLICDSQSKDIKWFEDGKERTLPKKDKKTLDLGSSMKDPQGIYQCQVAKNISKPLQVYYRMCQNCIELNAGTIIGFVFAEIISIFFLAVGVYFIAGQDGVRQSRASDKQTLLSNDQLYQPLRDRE

binder | CD25 Activation, Day 9, IS
PMX157 (monospecific anti-canine CD3, canine IgG-B effector function deficient Fc) (antibody, V domains shown) VH: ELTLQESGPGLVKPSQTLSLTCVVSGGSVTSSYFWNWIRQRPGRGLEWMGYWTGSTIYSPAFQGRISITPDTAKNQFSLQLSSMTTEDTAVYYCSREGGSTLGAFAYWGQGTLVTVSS VL: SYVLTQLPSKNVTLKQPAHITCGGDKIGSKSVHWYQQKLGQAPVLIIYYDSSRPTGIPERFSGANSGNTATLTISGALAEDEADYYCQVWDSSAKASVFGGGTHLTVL | 9.96
PMX158 (monospecific anti-canine CD3, canine IgG-B effector function deficient Fc) (antibody, V domains shown) VH: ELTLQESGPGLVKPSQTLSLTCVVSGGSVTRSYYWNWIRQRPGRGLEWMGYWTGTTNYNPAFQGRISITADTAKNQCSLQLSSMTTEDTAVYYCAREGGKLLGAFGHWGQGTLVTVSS VL: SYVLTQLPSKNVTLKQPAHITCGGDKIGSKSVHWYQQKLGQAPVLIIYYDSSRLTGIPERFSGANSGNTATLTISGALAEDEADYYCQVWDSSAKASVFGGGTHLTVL | 5.45
PMX200 (monospecific anti-canine CD3, canine IgG-B effector function deficient Fc) (antibody, V domains shown) VH: ELTLQESGPGLVKPSQTLSLTCIVSGGSVTSSYYWNWIRQSPGRGLEWMGYWTGNTNYNPALQGRIFITADTAKNQFSLQLRSMTTEDTAVYYCARGGYGYHYGMDYWGHGTSVFVSS VL: SYVLTQLPSKSVALKQPAHITCGGDNIGSKRVHWYQQKLGQAPALIISFDNSRPTGIPERFSGANSGNTATLTISGALAEDEADYYCQVWDSTAKASIFGGGTHLTVL | 13.1
PMX177 (monospecific anti-canine CD3, canine IgG-B effector function deficient Fc) (antibody, V domains shown) VH: EVTLQESGPGLVKPSQTLSLTCVVSGGSVTSSFYWNWIRQRPGRGLEWMGYWTGSTNYNPAFQGRISITADTAKNQFSLHLGSMTTDDTAMYYCAREEGSWGRVYFDYWGQGTLVTVSS VL: SYVLTQLPSKNVTLKQPAHITCGGDNIGSKSVHWYQQKLGQAPVLIIYYDSSRPTGIPERFSGANSGNTATLTISGALAEDEADYYCQVWDSSTKTWVFGEGTQLTVL | 13.7
PMX168 (monospecific anti-canine CD3, canine IgG-B effector function deficient Fc) (antibody, V domains shown) VH: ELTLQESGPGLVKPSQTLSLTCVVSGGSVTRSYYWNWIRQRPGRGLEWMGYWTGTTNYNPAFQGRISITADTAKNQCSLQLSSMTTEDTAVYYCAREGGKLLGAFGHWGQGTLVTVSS VL: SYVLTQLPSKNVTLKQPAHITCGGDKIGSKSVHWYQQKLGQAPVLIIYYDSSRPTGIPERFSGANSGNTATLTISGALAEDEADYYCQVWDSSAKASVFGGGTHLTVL | 8.87
PMX195 (monospecific anti-canine CD3, canine IgG-B effector function deficient Fc) (antibody, V domains shown) VH: EVQLVESGGDLVKPAGSLRLSCMASGFTFSSYSMSWVRQAPEKGLQLVAGINGDGSTTYYTDAVKGRFTISRDNAKNTVYLQMNNLRVEDSAMYYCAKGAGTGDYWGQGTLVTVSS VL: SYELTQPPSLNVTLRETAHITCGGDRIGSRYVQWIQQNPGQAPVVVIYKDSNRPTGIPERFSGANSGNTATLTISGALAEDEADYYCQVGDSGNWVFGGGTQLTVL | 7.58
PMX167 (monospecific anti-canine CD3, canine IgG-B effector function deficient Fc) (antibody, V domains shown) VH: EVKLVESGGDLVKPGGSLRLSCMASGFTLNNYYMSWVRQAPGKGLQWVAYIKSGGSDTSYVDAVKGRFTISRDNAKNTLHLQMNSLRVEDTAVYYCATDGYIWAWGQGTLVTVSS VL: SYVLTQLPSKNVTLKQPAHITCGGDNIGSKSVHWYQQKLGQAPVLIIYYDNSRPTGIPERFSGAKSGNTATLTISGALAEDEADYYCQVWDSSSKAYVFGSGTQLTVL | 11.6
PMX181 (monospecific anti-canine CD3, canine IgG-B effector function deficient Fc) (antibody, V domains shown) VH: ELTLQESGPGLVKPSQTLSLTCIVSGGSVTNNYYWTWIRQRPGRGLEWMGYWTGFTNYNPAFQGRISIIANTAKKQLSLQLSSLTTEDTAVYYCARRAIPTYFDYWGQGTLVTVSS VL: SYVLTQLPSKNVTLKQPAHITCGGDNIGSRSVHWYQQKLGQAPVLIIYYDSSRPTGIPERFSGANSGNTATLTISGALAEDEADYYCQVWDSSASVFGGGTHLTVL | 9.09
PMX184 (monospecific anti-canine CD3, canine IgG-B effector function deficient Fc) (antibody, V domains shown) VH: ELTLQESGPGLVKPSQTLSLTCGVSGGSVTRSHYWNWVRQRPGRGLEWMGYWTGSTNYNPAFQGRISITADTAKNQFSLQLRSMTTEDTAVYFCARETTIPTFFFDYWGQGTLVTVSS VL: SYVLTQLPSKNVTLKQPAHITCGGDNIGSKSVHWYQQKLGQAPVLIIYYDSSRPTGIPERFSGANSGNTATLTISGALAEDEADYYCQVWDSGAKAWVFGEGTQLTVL | 12.3
PMX176 (monospecific anti-canine CD3, canine IgG-B effector function deficient Fc) (antibody, V domains shown) VH: EVQLVESGGDLVKPGGSLRLSCVASGFTFSSYHMSWVRQAPGKGLQWVAYINSAGSTTSYTDAVQGRFTISRDNAKNTLYLQMNSLRAEDTAVYYCASEWIFMPWGQGSLVTVSS VL: SYVLTQLPSKNVTLKQPAHITCGGDNIGSKSVHWYQQKLGQAPVLIIYYDSSRPTGIPERFSGANSGNTATLTISGALAEDEADYYCQVWDSSAKARVFGEGTQLTVL | 12.3
